System Tested: Hexose transporter 1 (Plasmodium falciparum) (UniProt O97467)
Assay: ST_JUDE_LEISH: Cytotoxicity at 2uM final concentration against transgenic Leishmania Mexicana promastigotes LmPfHT that are glucose transport deficient and complemented with the Plasmodium falciparum hexose transporter. Activity is measured by DNA content using SYBR green in vitro
Type: functional
Kindly state inhibition for each of the entries shown.
Give just the numeric value; % need not be written.

Would you kindly share the measured inhibition for `OCCN1CCN(Cc2cccc(-c3cccc(-c4nc5cc(F)ccc5[nH]4)c3)c2)CC1` ?
1.75

Which inhibition reading was recorded for the molecule `COCCn1c(-c2cccc(Cl)c2)nn(-c2ccc([N+](=O)[O-])cc2Cl)c1=S` ?
6.65

Dear colleague, I am looking for the recorded inhibition of the following molecule: `Cc1ccc(S(=O)(=O)NC2=NC(=N)N(OCc3ccc(Cl)c(Cl)c3)C(C)(C)N2)cc1`
13.6

Which inhibition is reported for this molecule? `CC(=O)c1ccc(-c2ccccc2)s1`
3.72

Record request: inhibition value, item `N=c1c(C(=O)NCc2ccccc2)cc2c(=O)n3ccccc3nc2n1CCc1ccccc1`
4.07

Suppose we examine the molecule `CCCCc1cc(NCC)nc(Nc2ccc(OC)cc2)n1` ; what inhibition value has been reported?
10.1

Please give the measured inhibition for this molecule: `O=C(Nc1nc2cc(S(=O)(=O)NCc3ccc(Cl)c(Cl)c3)ccc2n1CCCN1CCCC1)c1ccc(Cl)cc1`
1.6

For `CCNc1cc(C(=O)N[C@@H](Cc2ccccc2)[C@H](O)CN[C@H](C)c2ccccc2)cc(N2CCCC2=O)c1` , what is its reported inhibition?
3.88

Find the recorded inhibition belonging to O=C(CC1CCCCC1)NCC(NCCCNc1cc(=O)c2ccccc2[nH]1)c1cc(Br)cc(Br)c1 (centres undefined) and report it.
-1.16
